Tested on: NCI-H522 lung
Experiment: NCI-60 one-dose screen, 48 h
Conditions: 10 µM
This is part of a sample that, as a whole, favours compounds with a hit. Of some 83,000 tested, about 20% had one in any assay. The source made the active and inactive calls. The calls were made as follows: active = growth percent below 10; inactive = the rest.
Choose one outcome from this list and give only that: active, inactive

> print(dat)
                               given.smiles   group
1  O=C(CNc1nc(-c2ccccc2)cs1)Nc1ccc([N+](=O)[O-])cc1  active

Check the results log: what was the call for COc1ccc(CN2[C@H](C(=O)NCc3ccc(C(=O)NO)cc3)Cc3c([nH]c4ccccc34)[C@H]2C2CC2)cc1 ?
inactive

Check the results log: what was the call for CC1(C)CC[C@]2(C(=O)O)CC[C@]3(C)C(=CC[C@@H]4[C@@]5(C)C/C(=C/c6ccncc6)[C@H](O)C(C)(C)[C@@H]5CC[C@]43C)[C@@H]2C1 ?
inactive

Check the results log: what was the call for Cc1ccc(-c2ccc(SCC(=O)Nc3ccc(Cl)c(C(F)(F)F)c3)nn2)cc1 ?
active

Check the results log: what was the call for O=c1[nH][nH]c(Nc2ccccc2)c1N=Nc1ccc(F)cc1 ?
inactive

Check the results log: what was the call for CC(=C(c1ccc(OCCCN(C)C)cc1)c1ccc(OCCCN(C)C)cc1)c1ccccc1 ?
active

Check the results log: what was the call for CC(C)CCSc1nc(NC2CC2)c(C#N)c(-c2ccc(C(C)C)cc2)n1 ?
inactive

Check the results log: what was the call for C=CCn1c(SCC(=O)Nc2ccc(C(=O)/C=C/c3ccccc3)cc2)nnc1-c1c[nH]c2ccccc12 ?
inactive

Check the results log: what was the call for O=C(NO)c1ccc(CNC(=O)[C@H]2Cc3c([nH]c4ccccc34)[C@H](c3ccc(Cl)cc3)N2)cc1 ?
active

###

Recorded growth by entry
Tested on: ACHN renal
Assay: NCI-60 one-dose screen, 48 h (100 = growth as untreated, 0 = no growth, -100 = all killed)
Details: 10 µM
About 83,000 compounds went through this panel and 20% of them were active in at least one assay; those are over-represented in the sample as a whole. The source made the active and inactive calls. The calls were made as follows: active = growth percent below 10; inactive = the rest.

Example entries and their recorded answers appear below.
> print(dat)
                                   compound            result
1  CC(C)(C)Nc1nc2cc(Cl)c(Cl)cc2nc1S(C)(=O)=O  56.3% (inactive)
2  Cc1noc2c(Cc3ccccc3)nn(CC(=O)N/N=C/c3ccc(Cl)cc3)c(=O)c12   -16.5% (active)
3  CCCCCCCCCCCCCCCCCCCC(=O)NCCc1c[nH]c2ccc(OC(=O)NOCCOCCOCCOCCOCCOCCOCCOCCOCCOCCOCCOCCOCCOCCOCCOCCOCCOCCOCCOCCOCCOCCOC)cc12  40.7% (inactive)
4  OCCNc1oc(-c2ccccc2)nc1[P+](c1ccccc1)(c1ccccc1)c1ccccc1  84.4% (inactive)
5  O=c1nc(-c2ccccc2)cc(-c2cc3ccccc3nc2Cl)[nH]1  39.1% (inactive)

Suppose we examine the compound C=C[C@@]12CN3CC[C@]1(O)[C@@](C(=O)OC)(CO2)c1[nH]c2ccccc2c1C3 ; what growth value has been reported?
73.6% (inactive)

Suppose we examine the compound CCN1CCN(c2ccc(NC(=O)Nc3ccc(-c4cc(C(=O)NC(C)C)c5ncccc5n4)cc3)cc2C(F)(F)F)CC1 ; what growth value has been reported?
-93.1% (active)

Suppose we examine the compound CC(=O)Nc1ccc(-c2cn(-c3cccc(C(=O)Nc4ccc(Cl)c(C(F)(F)F)c4)c3)nn2)cn1 ; what growth value has been reported?
-52.5% (active)

Suppose we examine the compound O=C(Nc1ccc(I)cc1F)c1cc(-c2ccc(F)cc2F)ccc1O ; what growth value has been reported?
-5.83% (active)

Suppose we examine the compound Nc1nc(-c2ccccc2)cs1 ; what growth value has been reported?
59.5% (inactive)

Suppose we examine the compound COc1ccc(C(=O)/C=C/c2ccc(Cl)c(C(F)(F)F)c2)cc1S(N)(=O)=O ; what growth value has been reported?
-100% (active)

Suppose we examine the compound CN(C)c1ccc(/C=C/c2nc3ccccc3c(=O)n2CC(=O)Nc2ccccc2)cc1 ; what growth value has been reported?
18.8% (inactive)
